solubility values by entry
Experiment: Aqueous solubility at pH 6.8
Type: physicochemical
Details: buffer
Metric: solubility (µg/mL)

INSERT INTO results (smiles_input, measured) VALUES
  ('CC(C)(C)c1csc(NC(=O)c2ccn3c(=O)c(/C=C/c4nnn[nH]4)c(N4CCC[C@@H](OC(N)=O)C4)nc3c2)n1', 9.2),
  ('CC(C)(C)c1csc(NC(=O)c2ccn3c(=O)c(/C=C/c4nnn[nH]4)c(N4CCC(OC(=O)NCC[N+](C)(C)CC(=O)[O-])CC4)nc3c2)n1', 170),
  ('CC(C)(C)c1csc(NC(=O)c2ccn3c(=O)c(/C=C/c4nnn[nH]4)c(N4CCC[C@@H](OC(=O)NCCC[N+](C)(C)CC(=O)[O-])C4)nc3c2)n1', 610),
  ('CC(C)(C)c1csc(NC(=O)c2ccn3c(=O)c(/C=C/c4nnn[nH]4)c(N4CCC[C@@H](CC(=O)NCC[N+](C)(C)CC(=O)[O-])C4)nc3c2)n1', 860),
  ('CC(C)(C)c1csc(NC(=O)c2ccn3c(=O)c(/C=C/c4nnn[nH]4)c(N4CCC[C@@H](OC(=O)NCC[N+](C)(C)CC(=O)[O-])C4)nc3c2)n1', 747),
  ('CC(C)(C)c1csc(NC(=O)c2ccn3c(=O)c(/C=C/c4nnn[nH]4)c(N4CCC[C@H](OC(=O)NCC[N+](C)(C)C)C4)nc3c2)n1', 547),
  ('CC(C)(C)c1csc(NC(=O)c2ccn3c(=O)c(/C=C/c4nnn[nH]4)c(N4CCC[C@@H](OC(=O)NCC[N+](C)(C)CC(N)=O)C4)nc3c2)n1', 95);

----------
Activity values by entry
Tested on: Pseudomonas aeruginosa
Assay: Inhibition of Pseudomonas aeruginosa PAM1723 MexAB-OprM assessed as drug level required to decrease MIC of aztreonam
Metric: Activity (µg/mL)

INSERT INTO measurements (smiles_input, output_unit, comparator, measured) VALUES
  ('CC(C)(C)c1csc(NC(=O)c2ccn3c(=O)c(/C=C/c4nnn[nH]4)c(N4CCC[C@@H](OC(N)=O)C4)nc3c2)n1', 'µg/mL', '<', 0.25),
  ('CC(C)(C)c1csc(NC(=O)c2ccn3c(=O)c(/C=C/c4nnn[nH]4)c(N4CCC[C@@H](OC(=O)NCC[N+](C)(C)CC(N)=O)C4)nc3c2)n1', 'µg/mL', '=', 4),
  ('CC(C)(C)c1csc(NC(=O)c2ccn3c(=O)c(/C=C/c4nnn[nH]4)c(N4CCC[C@@H](OC(=O)NCC[N+](C)(C)C)C4)nc3c2)n1', 'µg/mL', '=', 2),
  ('CN(C)CCNC(=O)O[C@@H]1CCCN(c2nc3cc(C(=O)Nc4nc(C(C)(C)C)cs4)ccn3c(=O)c2/C=C/c2nnn[nH]2)C1', 'µg/mL', '=', 1),
  ('CC(C)(C)c1csc(NC(=O)c2ccn3c(=O)c(/C=C/c4nnn[nH]4)c(N4CCC(OC(=O)NCC[N+](C)(C)CC(=O)[O-])CC4)nc3c2)n1', 'µg/mL', '=', 4),
  ('CC(C)(C)c1csc(NC(=O)c2ccn3c(=O)c(/C=C/c4nnn[nH]4)c(N4CCC/C(=C\C(=O)NCC[N+](C)(C)CC(=O)[O-])C4)nc3c2)n1', 'µg/mL', '=', 8),
  ('CC(C)(C)c1csc(NC(=O)c2ccn3c(=O)c(/C=C/c4nnn[nH]4)c(N4CCC[C@@H](CC(=O)NCC[N+](C)(C)CC(=O)[O-])C4)nc3c2)n1', 'µg/mL', '=', 4),
  ('CC(C)(C)c1csc(NC(=O)c2ccn3c(=O)c(/C=C/c4nnn[nH]4)c(N4CCC[C@@H](OC(=O)NCCC[N+](C)(C)CC(=O)[O-])C4)nc3c2)n1', 'µg/mL', '=', 2),
  ('CC(C)(C)c1csc(NC(=O)c2ccn3c(=O)c(/C=C/c4nnn[nH]4)c(N4CCC[C@@H](OC(=O)NCC[N+](C)(C)CC(=O)[O-])C4)nc3c2)n1', 'µg/mL', '=', 2);
